# ASSAYED_TARGET: HIV-1 Env of ZM109.4 (HIV-1)
# TEST_DESCRIPTION: cell-based or functional assay
Reported neutralization IC50 values for the following binders.
QUANTITY: neutralization IC50

[[record]]
binder = "CAP256-VRC26.08 (antibody, V domains shown) VH: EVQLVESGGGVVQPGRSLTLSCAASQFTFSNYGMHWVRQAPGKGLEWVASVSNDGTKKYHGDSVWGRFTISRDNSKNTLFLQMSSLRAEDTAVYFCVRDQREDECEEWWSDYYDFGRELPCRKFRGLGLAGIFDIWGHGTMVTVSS VL: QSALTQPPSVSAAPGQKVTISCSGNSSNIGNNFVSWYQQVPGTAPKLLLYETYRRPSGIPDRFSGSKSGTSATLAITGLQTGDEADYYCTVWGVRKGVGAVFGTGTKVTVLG"
quantity = "neutralization IC50"
result = "> 50 µg/mL"

[[record]]
binder = "CAP256-VRC26.01 (antibody, V domains shown) VH: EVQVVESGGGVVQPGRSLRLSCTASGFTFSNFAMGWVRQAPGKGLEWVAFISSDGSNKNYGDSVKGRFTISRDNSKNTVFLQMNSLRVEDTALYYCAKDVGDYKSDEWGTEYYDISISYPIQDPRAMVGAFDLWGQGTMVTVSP VL: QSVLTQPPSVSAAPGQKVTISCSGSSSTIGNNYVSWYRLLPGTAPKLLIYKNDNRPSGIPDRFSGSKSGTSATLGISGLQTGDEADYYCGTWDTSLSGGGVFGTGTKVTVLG"
quantity = "neutralization IC50"
result = "> 50 µg/mL"

[[record]]
binder = "CAP256-VRC26.07 (antibody, V domains shown) VH: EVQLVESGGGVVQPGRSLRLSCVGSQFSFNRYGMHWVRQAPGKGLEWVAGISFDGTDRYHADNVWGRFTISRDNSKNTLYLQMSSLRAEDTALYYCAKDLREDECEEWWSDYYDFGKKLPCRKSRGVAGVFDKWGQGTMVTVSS VL: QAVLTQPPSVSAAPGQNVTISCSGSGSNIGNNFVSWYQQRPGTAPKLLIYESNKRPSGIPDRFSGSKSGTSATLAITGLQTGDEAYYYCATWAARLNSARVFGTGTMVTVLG"
quantity = "neutralization IC50"
result = "> 50 µg/mL"

